Data provenance is ChEMBL document CHEMBL5120922.

target: Phosphatidylinositol 4,5-bisphosphate 3-kinase catalytic subunit alpha isoform (Homo sapiens); test: Inhibition of N-terminal His6-tagged recombinant full length human PI3Kalpha expressed in baculovirus infected Sf21 insect cells at 1 uM by HTRF assay relative to control
Sequence (P42336 whole entry, canonical isoform): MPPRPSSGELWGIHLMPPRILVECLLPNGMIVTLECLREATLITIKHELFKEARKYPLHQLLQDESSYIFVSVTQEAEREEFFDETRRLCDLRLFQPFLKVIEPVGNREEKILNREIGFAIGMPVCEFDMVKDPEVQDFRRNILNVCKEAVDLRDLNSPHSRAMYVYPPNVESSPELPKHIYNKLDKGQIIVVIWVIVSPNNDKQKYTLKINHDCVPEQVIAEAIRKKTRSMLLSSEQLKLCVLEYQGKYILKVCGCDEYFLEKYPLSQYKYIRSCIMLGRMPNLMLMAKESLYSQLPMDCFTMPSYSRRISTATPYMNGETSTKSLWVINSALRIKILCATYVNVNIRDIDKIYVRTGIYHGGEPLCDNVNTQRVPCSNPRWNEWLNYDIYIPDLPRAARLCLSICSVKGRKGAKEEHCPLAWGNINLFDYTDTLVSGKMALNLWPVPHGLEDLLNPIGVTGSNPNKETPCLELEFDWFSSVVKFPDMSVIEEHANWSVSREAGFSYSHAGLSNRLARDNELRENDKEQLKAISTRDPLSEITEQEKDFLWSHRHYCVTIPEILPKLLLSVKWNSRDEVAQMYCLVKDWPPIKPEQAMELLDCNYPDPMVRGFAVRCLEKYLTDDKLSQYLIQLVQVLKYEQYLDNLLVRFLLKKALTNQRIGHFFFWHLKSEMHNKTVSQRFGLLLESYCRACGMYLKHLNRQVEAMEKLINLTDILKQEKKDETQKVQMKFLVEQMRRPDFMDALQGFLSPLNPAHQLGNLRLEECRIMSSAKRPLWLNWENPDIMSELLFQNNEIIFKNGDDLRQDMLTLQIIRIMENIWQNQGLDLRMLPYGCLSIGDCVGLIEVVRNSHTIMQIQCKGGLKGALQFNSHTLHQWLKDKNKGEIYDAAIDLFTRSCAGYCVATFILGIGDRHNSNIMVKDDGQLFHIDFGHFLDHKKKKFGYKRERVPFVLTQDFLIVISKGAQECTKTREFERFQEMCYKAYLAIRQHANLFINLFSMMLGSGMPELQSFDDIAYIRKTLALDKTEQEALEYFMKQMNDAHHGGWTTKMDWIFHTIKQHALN
Examples of molecules with documented inhibition follow.
observable: inhibition (%)

smilesRepr: C[C@H]1CC[C@@H](c2nc3cccc(Cl)c3c(=O)n2N2CCOCC2)N1c1nc(N)nc2[nH]cnc12
observable: inhibition
reportedMeasurement: 91
--
smilesRepr: C[C@H]1CC[C@@H](c2nc3c(F)cccc3c(=O)n2-c2cccnc2)N1c1nc(N)nc(N)c1C#N
observable: inhibition
reportedMeasurement: 30
--
smilesRepr: CC(C)n1cc(-c2cccc3nc([C@@H]4CC[C@H](C)N4c4nc(N)nc(N)c4C#N)n(-c4ccccc4)c(=O)c23)cn1
observable: inhibition
reportedMeasurement: 12
--
smilesRepr: C[C@H]1CC[C@@H](c2nc3cccc(C#Cc4cccnc4)c3c(=O)n2-c2ccccc2)N1c1nc(N)nc(N)c1C#N
observable: inhibition
reportedMeasurement: 8
--
smilesRepr: COc1ccc(-c2cccc3nc([C@@H]4CC[C@H](C)N4c4nc(N)nc(N)c4C#N)n(-c4ccccc4)c(=O)c23)cn1
observable: inhibition
reportedMeasurement: 14
--
smilesRepr: COc1ccc(C#Cc2cccc3nc([C@@H]4CC[C@H](C)N4c4nc(N)nc(N)c4C#N)n(-c4ccccc4)c(=O)c23)cc1
observable: inhibition
reportedMeasurement: 25
--
smilesRepr: C[C@H]1CC[C@@H](c2nc3ccc(F)cc3c(=O)n2-c2cccnc2)N1c1nc(N)nc(N)c1C#N
observable: inhibition
reportedMeasurement: 63
--
smilesRepr: C[C@H]1CC[C@@H](c2nc3cccc(Cl)c3c(=O)n2-c2cc(F)cc(F)c2)N1c1nc(N)nc(N)c1C#N
observable: inhibition
reportedMeasurement: 66
--
smilesRepr: N#Cc1c(N)nc(N)nc1N1[C@H](c2nc3cccc(F)c3c(=O)n2-c2cc(F)cc(F)c2)C[C@@H]2CCCC[C@@H]21
observable: inhibition
reportedMeasurement: 84
--
smilesRepr: Cc1cccc(C#Cc2cccc3nc([C@@H]4CC[C@H](C)N4c4nc(N)nc(N)c4C#N)n(-c4ccccc4)c(=O)c23)c1
observable: inhibition
reportedMeasurement: 35
--
smilesRepr: C[C@H]1CC[C@@H](c2nc3cccc(Cl)c3c(=O)n2N2CCOCC2)N1c1nc(N)nc(N)c1C#N
observable: inhibition
reportedMeasurement: 72
--
smilesRepr: COc1cccc(C#Cc2cccc3nc([C@@H]4CC[C@H](C)N4c4nc(N)nc(N)c4C#N)n(-c4ccccc4)c(=O)c23)c1
observable: inhibition
reportedMeasurement: 16
--
smilesRepr: C[C@H]1CC[C@@H](c2nc3cccc(C#Cc4ccsc4)c3c(=O)n2-c2ccccc2)N1c1nc(N)nc(N)c1C#N
observable: inhibition
reportedMeasurement: -2
--
smilesRepr: C[C@H]1CC[C@@H](c2nc3cc(F)ccc3c(=O)n2-c2cccnc2)N1c1nc(N)nc(N)c1C#N
observable: inhibition
reportedMeasurement: 39
--
smilesRepr: C[C@H]1CC[C@@H](c2nc3cccc(-c4cnn(C(F)F)c4)c3c(=O)n2-c2ccccc2)N1c1nc(N)nc(N)c1C#N
observable: inhibition
reportedMeasurement: 26

---

assay: Metabolic stability in human liver microsomes assessed as clearance at 1 uM measured upto 60 mins in presence of NADPH by measuring protein; format: ADME, Microsome; details: 1 h

smilesRepr: CCOc1cncc(-c2cccc3nc([C@@H]4CC[C@H](C)N4c4nc(N)nc(N)c4C#N)n(-c4ccccc4)c(=O)c23)c1
unitOfMeasure: mL/min/g
CLH: 28.4
//
smilesRepr: C[C@H]1CC[C@@H](c2nc3cccc(-c4cccnc4)c3c(=O)n2-c2ccccc2)N1c1nc(N)nc(N)c1C#N
unitOfMeasure: mL/min/g
CLH: 37.4
//
smilesRepr: COc1cncc(-c2cccc3nc([C@@H]4CC[C@H](C)N4c4nc(N)nc(N)c4C#N)n(-c4ccccc4)c(=O)c23)c1
unitOfMeasure: mL/min/g
CLH: 20.8
//
smilesRepr: C[C@H]1CC[C@@H](c2nc3cccc(Cl)c3c(=O)n2-c2ccccc2)N1c1nc(N)nc2[nH]cnc12
unitOfMeasure: mL/min/g
CLH: 11.4
//
smilesRepr: CC(C)n1cc(-c2cccc3nc([C@@H]4CC[C@H](C)N4c4nc(N)nc(N)c4C#N)n(-c4ccccc4)c(=O)c23)cn1
unitOfMeasure: mL/min/g
CLH: 29.6
//
smilesRepr: C[C@H]1CC[C@@H](c2nc3cccc(-c4cnn(C)c4)c3c(=O)n2-c2ccccc2)N1c1nc(N)nc(N)c1C#N
unitOfMeasure: mL/min/g
CLH: 13.8
//
smilesRepr: C[C@H]1CC[C@@H](c2nc3cccc(Cl)c3c(=O)n2-c2ccccc2)N1c1nc(N)nc(N)c1C#N
unitOfMeasure: mL/min/g
CLH: 13
//
smilesRepr: CCn1cc(-c2cccc3nc([C@@H]4CC[C@H](C)N4c4nc(N)nc(N)c4C#N)n(-c4ccccc4)c(=O)c23)cn1
unitOfMeasure: mL/min/g
CLH: 17.4
//
smilesRepr: C[C@H]1CC[C@@H](c2nc3cccc(C#Cc4cccnc4)c3c(=O)n2-c2ccccc2)N1c1nc(N)nc(N)c1C#N
unitOfMeasure: mL/min/g
CLH: 8
//
smilesRepr: C[C@H]1CC[C@@H](c2nc3cccc(-c4cnn(C5CC5)c4)c3c(=O)n2-c2ccccc2)N1c1nc(N)nc(N)c1C#N
unitOfMeasure: mL/min/g
CLH: 17.8
//
smilesRepr: CCCn1cc(-c2cccc3nc([C@@H]4CC[C@H](C)N4c4nc(N)nc(N)c4C#N)n(-c4ccccc4)c(=O)c23)cn1
unitOfMeasure: mL/min/g
CLH: 16.8
